Test system: 454973-116-R2-J3-PDC complex spheroid viability;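 note: spheroids exposed to drugs for seven days before measurement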
Assay protocol: Anticancer human tumor 454973-116-R2-J3-PDC patient-derived pancreatic carcinoma cell line growth inhibition [POLQ]; active = viability on the fitted dose curve at most 10% of control; inactive = the rest
Measurement conditions: second compound 10 µM; first compound 0.1 µM
Assign a class; possible classes are active, inactive

Answered cases to consult:
Molecule	Assigned class
O=C(Nc1ccc(O)c(NS(=O)(=O)c2ccc(F)cc2)c1)c1ccc(-c2ccccc2)cc1 + COC1C(OC(N)=O)C(O)C(Oc2ccc3c(O)c(NC(=O)c4ccc(O)c(CC=C(C)C)c4)c(=O)oc3c2C)OC1(C)C	inactive
CCc1cc2c(N3CCc4c(cc(Cn5ccnc5)cc4-c4cn(C)nc4C(F)(F)F)C3=O)cc(C)nc2c(OC)n1 + Nc1ccc(C#CCN(C(=O)Cc2ncc(C(F)(F)F)cc2C(F)(F)F)c2ccc(F)cc2)nn1	inactive
CC1COCCN1c1cc(-c2ccnn2C)c2ccnc(-c3ccn[nH]3)c2n1 (stereo not given) + Cc1cccc(N(C)C(=O)C2C(O)CCN2c2nc(C)cc(C(F)(F)F)c2C#N)c1	inactive
Nc1ccn(C2OC(CO)C(O)C2(F)F)c(=O)n1 (stereo not given) + Nc1ccc(C#CCN(C(=O)Cc2ncc(C(F)(F)F)cc2C(F)(F)F)c2ccc(F)cc2)nn1	active
CCCS(=O)(=O)Nc1ccc(F)c(C(=O)c2c[nH]c3ncc(-c4ccc(Cl)cc4)cc23)c1F + Nc1ccc(C#CCN(C(=O)Cc2ncc(C(F)(F)F)cc2C(F)(F)F)c2ccc(F)cc2)nn1	inactive
O=C(c1cc(Cc2n[nH]c(=O)c3ccccc23)ccc1F)N1CCN(C(=O)C2CC2)CC1 + Cc1cccc(N(C)C(=O)C2C(O)CCN2c2nc(C)cc(C(F)(F)F)c2C#N)c1	inactive

What is the recorded call for this molecule in the test? COc1cccc2c1C(=O)c1c(O)c3c(c(O)c1C2=O)CC(O)(C(=O)CO)CC3OC1CC(N)C(O)C(C)O1 (stereo not given) + Cc1cccc(N(C)C(=O)C2C(O)CCN2c2nc(C)cc(C(F)(F)F)c2C#N)c1
inactive

What is the recorded call for this molecule in the test? CC(C)n1c(=O)n(C)c2cnc3cc(F)c(-c4ccc(OCCCN5CCCCC5)nc4)cc3c21 + Nc1ccc(C#CCN(C(=O)Cc2ncc(C(F)(F)F)cc2C(F)(F)F)c2ccc(F)cc2)nn1
inactive

What is the recorded call for this molecule in the test? C#Cc1c(F)ccc2cc(O)cc(-c3ncc4c(N5CC6CCC(C5)N6)nc(OCC56CCCN5CC(F)C6)nc4c3F)c12 (stereo not given) + Nc1ccc(C#CCN(C(=O)Cc2ncc(C(F)(F)F)cc2C(F)(F)F)c2ccc(F)cc2)nn1
inactive

What is the recorded call for this molecule in the test? Cn1ncnc1[C@H]1c2n[nH]c(=O)c3cc(F)cc(c23)N[C@@H]1c1ccc(F)cc1 + Nc1ccc(C#CCN(C(=O)Cc2ncc(C(F)(F)F)cc2C(F)(F)F)c2ccc(F)cc2)nn1
inactive

What is the recorded call for this molecule in the test? COc1cc2cc(C(=O)CCC(=O)O)sc2cc1OC + Nc1ccc(C#CCN(C(=O)Cc2ncc(C(F)(F)F)cc2C(F)(F)F)c2ccc(F)cc2)nn1
inactive

What is the recorded call for this molecule in the test? CC1COCCN1c1cc(-c2ccnn2C)c2ccnc(-c3ccn[nH]3)c2n1 (stereo not given) + Nc1ccc(C#CCN(C(=O)Cc2ncc(C(F)(F)F)cc2C(F)(F)F)c2ccc(F)cc2)nn1
inactive

What is the recorded call for this molecule in the test? O=c1[nH]cc(F)c(=O)[nH]1 + Cc1cccc(N(C)C(=O)C2C(O)CCN2c2nc(C)cc(C(F)(F)F)c2C#N)c1
inactive

What is the recorded call for this molecule in the test? Cn1ncnc1[C@H]1c2n[nH]c(=O)c3cc(F)cc(c23)N[C@@H]1c1ccc(F)cc1 + Cc1cccc(N(C)C(=O)C2C(O)CCN2c2nc(C)cc(C(F)(F)F)c2C#N)c1
inactive

What is the recorded call for this molecule in the test? CNCc1ccc(-c2[nH]c3cc(F)cc4c3c2CCNC4=O)cc1 + Cc1cccc(N(C)C(=O)C2C(O)CCN2c2nc(C)cc(C(F)(F)F)c2C#N)c1
inactive
